# target.desc: Proteasome Macropain subunit (Homo sapiens) (UniProt P49721)
# Sequence (P49721 whole entry): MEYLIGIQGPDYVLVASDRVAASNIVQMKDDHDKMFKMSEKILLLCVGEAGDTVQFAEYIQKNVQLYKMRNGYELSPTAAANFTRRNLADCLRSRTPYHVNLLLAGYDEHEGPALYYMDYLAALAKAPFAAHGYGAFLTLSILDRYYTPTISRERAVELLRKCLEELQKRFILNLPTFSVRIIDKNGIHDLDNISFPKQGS
# assay.method.text: Inhibition of 26S proteasome beta 2 in human HEK293 cell lysate assessed as residual activity at 0.019 uM after 1 hr
# Format: cell-free
measured.parameter: Activity (%)
Give your result in % as a bare value.

[
  {
    "molecule": "CC(C)C[C@H](NC(=O)[C@H](Cc1cc(C(F)(F)F)cc(C(F)(F)F)c1)NC(=O)[C@H](Cc1ccccc1)NC(=O)[C@H](Cc1ccccc1)N=[N+]=[N-])C(=O)[C@@]1(C)CO1",
    "u": "%",
    "Activity": 111
  },
  {
    "molecule": "CC(C)C[C@H](NC(=O)[C@H](Cc1ccccc1)NC(=O)[C@H](Cc1ccccc1)NC(=O)[C@H](Cc1ccccc1)N=[N+]=[N-])C(=O)[C@@]1(C)CO1",
    "u": "%",
    "Activity": 82
  },
  {
    "molecule": "CC(C)C[C@H](NC(=O)[C@H](Cc1c(F)c(F)c(F)c(F)c1F)NC(=O)[C@H](Cc1ccccc1)NC(=O)[C@H](Cc1ccccc1)N=[N+]=[N-])C(=O)[C@@]1(C)CO1",
    "u": "%",
    "Activity": 109
  }
]

# input Recall the recorded Activity for CC(C)C[C@H](NC(=O)[C@H](Cc1cc(C(F)(F)F)cc(C(F)(F)F)c1)NC(=O)c1cnccn1)B1OC2C[C@@H]3C[C@@H](C3(C)C)[C@]2(C)O1 (stereo partly specified) with Proteasome Macropain subunit (Homo sapiens) (UniProt P49721) and state it.
# output 118

# input Recall the recorded Activity for CC(C)C[C@H](NC(=O)[C@H](Cc1c(F)c(F)c(F)c(F)c1F)NC(=O)c1cnccn1)B1OC2C[C@@H]3C[C@@H](C3(C)C)[C@]2(C)O1 (stereo partly specified) with Proteasome Macropain subunit (Homo sapiens) (UniProt P49721) and state it.
# output 102

# input Recall the recorded Activity for CC(C)C[C@H](NC(=O)[C@H](Cc1ccccc1)NC(=O)[C@H](Cc1cc(C(F)(F)F)cc(C(F)(F)F)c1)NC(=O)[C@H](Cc1ccccc1)N=[N+]=[N-])C(=O)[C@@]1(C)CO1 with Proteasome Macropain subunit (Homo sapiens) (UniProt P49721) and state it.
# output 100
